Entry source: patent US20250163186A1

- Measured On: T1, CH2-4 constant domains of human IgE linked to a transmembrane protein, on 293 cells (human, UniProt P01854-1 104-428)
- T1 construct: domain: CH2-4 constant domains; also called human IgE-expressing 293 cells
- Measurement Description: flow cytometry, 293 cells expressing human IgE CH2-4
Experimental Endpoint: Bmax (MFI)
Numbers only, in MFI.

>  <Binder>
hzB10v34-NNT (Fc fusion, monomeric) VHH-Fc: EVQLLESGGGEVQPGGSLRLSCVASGLTFSSYNMGWVRQAPGKEREFVSLSGSSSTSTYYAESVKGRFTISRDNSKNTVYLQMNSLRAEDTAVYYCAARRLLSTYWSDRSWDFWGQGTQVTVEPGGPSVFLFPPKPKDTLMISRTPEVTCVVVDVSHEDPEVKFNWYVDGVEVHNAKTKPREEQYNSTYRVVSVLTVLHQDWLNGKEYKCKVSNKALPAPIEKTISKAKGQPREPQVYTLPPSRDELTKNQVNLTCLVKGFYPSDIAVEWESNGQPENNYKTTPPVLDSDGSFFLNSTLTVDKSRWQQGNVFSCSVMHEALHNHYTQKSLSLSPGK

>  <Unit String>
MFI

>  <Endpoint Result>
375000

$$$$

Consider the additional binder presented here.
## Input Give recorded Bmax. hzB10v32-NNT (Fc fusion, monomeric) VHH-Fc: EVQLLESGGGEVQPGGSLRLSCVASGLTFSSYNMGWVRQAPGKEREFVGLSGSSSTSTYYAESVKGRFTISRDNSKNTVYLQMNSLRAEDTAVYYCAARRLLSTYWSDRSWDFWGQGTQVTVEPGGPSVFLFPPKPKDTLMISRTPEVTCVVVDVSHEDPEVKFNWYVDGVEVHNAKTKPREEQYNSTYRVVSVLTVLHQDWLNGKEYKCKVSNKALPAPIEKTISKAKGQPREPQVYTLPPSRDELTKNQVNLTCLVKGFYPSDIAVEWESNGQPENNYKTTPPVLDSDGSFFLNSTLTVDKSRWQQGNVFSCSVMHEALHNHYTQKSLSLSPGK
## Output 706000
